// provenance: PubChem BioAssay

- target-under-test: Albumin (Bos taurus)
- assay: bovine serum albumin binders on microarray, profiling panel, artefact control for SMM control protein annotation, biochemical, small-molecule microarray, Alexa647 label, 635/667 nm fluorescence (AID 1118);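 also: score merges 667 nm emission intensity and signal-to-noise per printed compound spot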
- study-conditions: BSA-A647 binding, fluorescence 635 nm, higher = more signal
attribute-measured: composite z-score
Numbers only.

Dear colleague, could you please provide composite z-score for the molecules listed below?
1. O=C(C=Cc1ccc2c(c1)OCO2)c1ccc(F)cc1
2. C[n+]1ccc(-c2ccc(CO)cc2)cc1
3. Cc1ccc(S(=O)(=O)N[C@@H]2COC(=O)[C@@H](C)COC(=O)CC=C[C@H]2C)cc1
4. C=CC[C@@H]1C=C[C@H](ON=C(C)CCC(=O)OC[C@H]2O[C@H](C#Cc3ccccc3)C=C[C@@H]2Oc2ccc(C)cc2)[C@@H](CO)O1

[out]
1: -0.744; 2: -0.619; 3: -0.0824; 4: 0.791

Dear colleague, could you please provide composite z-score for the molecules listed below?
1. O=C1C[C@@H](O)[C@@H](O)[C@@H]2[C@@H]3C(=O)N(c4cccc(Oc5ccccc5)c4)C(=O)[C@@H]3CC[C@H]12
2. CCOC(=O)NN=C1C[C@@H](O)[C@@H](O)[C@@H]2[C@@H]3C(=O)N([C@@H](C)c4ccccc4)C(=O)[C@@H]3CC[C@@H]12
3. CCOC(=O)[C@H](CC(C)C)NC(=O)CCC1CC(OC(=O)NCc2cccc3ccccc23)CC2(CCCC(COC(=O)NCc3ccncc3)O2)O1 (stereo not given in full)
4. Cn1c(=O)n2n(c1=O)[C@H]1[C@H](O)[C@@H]3O[C@@H]3C(=O)[C@H]1CC2
5. CC(CCN1CCCCc2nc(C)c(C)cc21)=NO[C@@H](C)c1cn([C@H](CO)Cc2ccccc2)nn1
6. COC(=O)[C@H](C)NC(=O)CCC1CC(OC(=O)NCc2ccc3c(c2)OCO3)CC2(CCCC(COC(=O)NCC3CCCCC3)O2)O1 (stereo not given in full)
7. CC(C)(C)N1C(=O)[C@H]2[C@H]3[C@H](O)[C@H](O)CC(=O)[C@@H]3CC[C@H]2C1=O
8. CC(C)(C)N1C(=O)[C@H]2[C@H]3[C@H](O)[C@H](O)CC(=NO[C@@H]4O[C@H](CO)[C@@H](O)[C@H](O)[C@H]4O)[C@H]3CC[C@H]2C1=O

[out]
1: 0.332; 2: -0.899; 3: 0.323; 4: -0.161; 5: 0.779; 6: 0.569; 7: 0.061; 8: -0.383

Dear colleague, could you please provide composite z-score for the molecules listed below?
1. COc1cccc([C@H]2Oc3ccc(OC)cc3C(=NO[C@H](C)c3cn([C@H](CO)Cc4ccccc4)nn3)[C@@H]2O)c1
2. CC(CCN1CCc2nc(-c3ccccc3)c(-c3ccccc3)cc2C1)=NOC[C@@H](O)[C@H]1O[C@@H]2OC(C)(C)O[C@@H]2[C@H]1O
3. C[C@@H](c1ccccc1)N1C(=O)[C@H]2[C@H]3[C@H](O)[C@H](O)CC(=NO[C@@H]4O[C@H](CO)[C@@H](O)[C@H](O)[C@H]4O)[C@@H]3CC[C@H]2C1=O

[out]
1. -1.28
2. 0.535
3. 0.423
